Measured IC50, listed per entry.
# TARGET: KRAS G12S (Homo sapiens (Human), UniProt P01116+P62937, G12S)
# Sequence (P01116-2 other isoform, or with tags, fused parts or gaps G12S): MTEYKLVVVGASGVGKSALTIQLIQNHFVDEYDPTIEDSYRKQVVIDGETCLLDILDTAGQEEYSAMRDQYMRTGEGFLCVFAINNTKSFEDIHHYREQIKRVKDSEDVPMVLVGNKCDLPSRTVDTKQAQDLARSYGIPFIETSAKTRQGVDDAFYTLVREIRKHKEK
# Sequence (P62937 whole entry): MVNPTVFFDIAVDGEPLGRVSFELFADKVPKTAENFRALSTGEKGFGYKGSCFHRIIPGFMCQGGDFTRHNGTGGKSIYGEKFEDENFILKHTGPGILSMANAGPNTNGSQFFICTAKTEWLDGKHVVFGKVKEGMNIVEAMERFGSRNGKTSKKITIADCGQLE
# TEST DESCRIPTION: Ras-Raf (BRAF RBD) disruption / FRET / MOA assay, KRAS G12S
# Type: biochemical
# SETUP CONDITIONS: Ras-Raf disruption/FRET/MOA assay; class symbols; read-out: KRAS G12S FRET data IC50

Please report IC50 for the following compound: C=CC(=O)N1CCC2(CC1)OCN([C@H](C(=O)N[C@H]1Cc3cccc(c3)-c3ccc4c(c3)c(c(-c3cccnc3[C@H](C)OC)n4CC)CC(C)(C)COC(=O)[C@@H]3CCCN(N3)C1=O)C(C)C)C2=O (atropisomer, axis not shown) [Example A457]
1000 to 10000 nM

Please report IC50 for the following compound: C=CC(=O)N1CCN(C(=O)N(C)[C@H](C(=O)N[C@H]2Cc3nc(cs3)-c3ccc4c(c3)c(c(-c3cccnc3[C@H](C)OC)n4CC)CC(C)(C)COC(=O)[C@@H]3CCCN(N3)C2=O)C(C)C)C2(CC2)C1 (atropisomer, axis not shown) [Example A395]
100 to 1000 nM

Please report IC50 for the following compound: C=CC(=O)N1CC[C@H](C(=O)N(C)[C@H](C(=O)N[C@H]2Cn3cnc(n3)-c3ccc4c(c3)c(c(-c3cccnc3[C@H](C)OC)n4CC)CC(C)(C)COC(=O)[C@@H]3CCCN(N3)C2=O)C(C)C)C1 (atropisomer, axis not shown) [Example A506]
1000 to 10000 nM

###

# TARGET: KRAS G12S (Homo sapiens (Human), UniProt P01116+P62937, G12S)
# TEST DESCRIPTION: Ras-Raf (BRAF RBD) disruption / FRET / MOA assay, KRAS G12S
# Format: biochemical
# SETUP CONDITIONS: Ras-Raf disruption/FRET/MOA assay; class symbols; read-out: KRAS G12S FRET data IC50
Measured IC50, listed per entry.

COMPOUND	IC50
C=CC(=O)N1CC[C@H](C(=O)N(C)[C@H](C(=O)N[C@H]2Cc3cc(O)cc(c3)-c3ccc4c(c3)c(c(-c3ncn(C)c3[C@H](C)OC)n4CC)CC(C)(C)COC(=O)[C@@H]3CCCN(N3)C2=O)C(C)C)C1 [Example A301]	1000 to 10000 nM
C=CC(=O)N1CC[C@@]2(CCN([C@H](C(=O)N[C@H]3Cc4cc(O)cc(c4)-c4ccc5c(c4)c(c(-c4ccccc4CCOC)n5CC)CC(C)(C)COC(=O)[C@@H]4CCCN(N4)C3=O)C(C)C)C2=O)C1 [Example A068]	1000 to 10000 nM
CO[C@@H](C)c1ncccc1-c1c2c3cc(ccc3n1CC(F)(F)F)-c1csc(n1)C[C@H](NC(=O)[C@H](C(C)C)N(C)C(=O)N1C[C@@H]3OCCN(C(=O)/C=C/CN(C)C)[C@@H]3C1)C(=O)N1CCC[C@H](N1)C(=O)OCC(C)(C)C2 (atropisomer, axis not shown) [Example A573]	100 to 1000 nM

// next entry
Please report IC50 for the following compound: C=CC(=O)N1CC[C@@H](C(=O)N(C)[C@H](C(=O)N[C@H]2Cc3cccc(c3)-c3ccc4c(c3)c(c(-c3cccnc3[C@H](C)OC)n4CC)CC(C)(C)COC(=O)[C@@H]3CCCN(N3)C2=O)C(C)C)C1 (atropisomer, axis not shown) [Example A488]
1000 to 10000 nM

###

Measured pIC50, listed per entry.
# TARGET: KRAS G13D (Homo sapiens (Human), UniProt P01116+P62937, G13D)
# Sequence (P01116-2 other isoform, or with tags, fused parts or gaps G13D): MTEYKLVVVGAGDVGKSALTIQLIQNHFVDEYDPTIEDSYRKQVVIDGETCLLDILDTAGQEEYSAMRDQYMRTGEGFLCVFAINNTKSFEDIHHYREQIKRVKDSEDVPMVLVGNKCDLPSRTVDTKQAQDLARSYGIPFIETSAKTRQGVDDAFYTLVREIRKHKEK
# Sequence (P62937 whole entry): as the sequence (P62937 whole entry) above
# TEST DESCRIPTION: Ras-Raf (BRAF RBD) disruption / FRET / MOA assay, KRAS G13D
# Type: biochemical
# SETUP CONDITIONS: read-out: IC50* KRAS G13D FRET data
pIC50: −log10 of the molar value.

MOLECULE	pIC50
C=CC(=O)N1CC[C@H](C(=O)N(C)[C@H](C(=O)N[C@H]2Cc3cccc(n3)-c3ccc4c(c3)c(c(-c3cccnc3[C@H](C)OC)n4CC)CC(C)(C)COC(=O)[C@@H]3CCCN(N3)C2=O)C(C)C)C1 (atropisomer, axis not shown)	< 5.00

// next entry
Please report pIC50 for the following molecule: C=CC(=O)N1CCC(F)(C(=O)N(C)[C@H](C(=O)N[C@H]2Cc3nc(cs3)-c3ccc4c(c3)c(c(-c3cccnc3[C@H](C)OC)n4CC)CC(C)(C)COC(=O)[C@@H]3CCCN(N3)C2=O)C(C)C)CC1 (atropisomer, axis not shown)
6.00 to 7.00

###

# TARGET: KRAS G12D (Homo sapiens (Human), UniProt P01116+P62937, G12D)
# Sequence (P01116-2 other isoform, or with tags, fused parts or gaps G12D): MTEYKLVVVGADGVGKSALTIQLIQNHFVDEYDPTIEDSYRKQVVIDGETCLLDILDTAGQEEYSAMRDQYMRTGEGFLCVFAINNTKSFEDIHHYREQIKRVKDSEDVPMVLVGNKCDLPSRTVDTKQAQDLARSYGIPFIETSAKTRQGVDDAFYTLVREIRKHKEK
# Sequence (P62937 whole entry): as the sequence (P62937 whole entry) above
# TEST DESCRIPTION: Ras-Raf (BRAF RBD) disruption / FRET / MOA assay, KRAS G12D
# Format: biochemical
# SETUP CONDITIONS: Ras-Raf disruption/FRET/MOA assay; class symbols; read-out: KRAS G12D FRET data IC50
Measured IC50, listed per entry.

As a guide, the following entries are already answered.
COMPOUND	IC50
CCn1c(-c2cccnc2[C@H](C)OC)c2c3cc(ccc31)-c1csc(n1)C[C@H](NC(=O)[C@H](C(C)C)N1CCC3(CCN(C(=O)C#CC(C)(C)N(C)C)CC3)C1=O)C(=O)N1CCC[C@H](N1)C(=O)OCC(C)(C)C2 (atropisomer, axis not shown)	> 10000 nM
CCn1c(-c2cccnc2[C@H](C)OC)c2c3cc(ccc31)-c1nc(cs1)C[C@H](NC(=O)[C@H](C1CCCC1)N(C)C(=O)[C@H]1CCN(C(=O)C#CC(C)(C)N3CCC3)C1)C(=O)N1CCC[C@H](N1)C(=O)OCC(C)(C)C2 (atropisomer, axis not shown)	> 10000 nM
C=CC(=O)N(C)CC1CN(C(=O)N(C)[C@H](C(=O)N[C@H]2Cc3nc(cs3)-c3ccc4c(c3)c(c(-c3cccnc3[C@H](C)OC)n4CC)CC(C)(C)COC(=O)[C@@H]3CCCN(N3)C2=O)C(C)C)C1 (atropisomer, axis not shown)	100 to 1000 nM
C=CS(=O)(=O)N1CCC(C(=O)N(C)[C@H](C(=O)N[C@H]2Cc3cccc(c3)-c3ccc4c(c3)c(c(-c3cncnc3)n4CC)CC(C)(C)COC(=O)[C@@H]3CCCN(N3)C2=O)C(C)C)C1 (single isomer, unassigned)	> 10000 nM

Please report IC50 for the following compound: CCn1c(-c2cccnc2[C@H](C)OC)c2c3cc(ccc31)-c1csc(n1)C[C@H](NC(=O)[C@H](C(C)C)N(C)C(=O)N1CCN(C(=O)/C=C/CN(C)C)C[C@@H]1C)C(=O)N1CCC[C@H](N1)C(=O)OCC(C)(C)C2 (atropisomer, axis not shown)
100 to 1000 nM

Please report IC50 for the following compound: CCn1c(-c2cccnc2[C@H](C)OC)c2c3cc(ccc31)-c1cc(O)cc(c1)C[C@H](NC(=O)[C@H](C(C)C)N(C)C(=O)c1ncc(NC(=O)/C=C/CN(C)C)s1)C(=O)N1CCC[C@H](N1)C(=O)OCC(C)(C)C2 (atropisomer, axis not shown)
1000 to 10000 nM

Please report IC50 for the following compound: C=CC(=O)N1CC[C@H]2[C@@H](C1)CN2C(=O)N(C)[C@H](C(=O)N[C@H]1Cc2nc(cs2)-c2ccc3c(c2)c(c(-c2cccnc2[C@H](C)OC)n3CC)CC(C)(C)COC(=O)[C@@H]2CCCN(N2)C1=O)C(C)C (atropisomer, axis not shown)
1000 to 10000 nM

Please report IC50 for the following compound: C=CC(=O)N1CC[C@H](C(=O)N(C)c2ccccc2C(=O)N[C@H]2Cc3cc(O)cc(c3)-c3ccc4c(c3)c(c(-c3cnccc3COC)n4CC)CC(C)(C)COC(=O)[C@@H]3CCCN(N3)C2=O)C1
> 10000 nM

###

# TARGET: NRAS Q61K (Homo sapiens (Human), UniProt P01111+P62937, Q61K)
# Sequence (P01111 whole entry Q61K): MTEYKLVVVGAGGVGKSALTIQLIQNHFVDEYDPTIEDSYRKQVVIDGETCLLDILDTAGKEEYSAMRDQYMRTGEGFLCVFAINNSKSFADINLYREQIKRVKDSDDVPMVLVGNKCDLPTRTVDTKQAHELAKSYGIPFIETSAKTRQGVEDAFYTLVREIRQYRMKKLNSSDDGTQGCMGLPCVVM
# Sequence (P62937 whole entry): as the sequence (P62937 whole entry) above
# TEST DESCRIPTION: Ras-Raf (BRAF RBD) disruption / FRET / MOA assay, NRAS Q61K
# Assay type: biochemical
# SETUP CONDITIONS: NRAS Q61K; Ras-Raf disruption/FRET/MOA assay; read-out: IC50* NRAS Q61K FRET data
# Procedure: The purpose of this biochemical assay is to measure the ability of test compounds to facilitate ternary complex formation between a nucleotide-loaded Ras isoform and cyclophilin A; the resulting ternary complex disrupts binding to a BRAF^RBD construct, inhibiting Ras signaling through a RAF effector. […]. Compound is present in plate wells as a 10-point 3-fold dilution series starting at a final concentration of 30 μM. […]
REPORTED METRIC: IC50

COMPOUND	IC50
CCn1c(-c2cccnc2[C@H](C)OC)c2c3cc(ccc31)N1CCO[C@@](C)(C[C@H](NC(=O)[C@H](C(C)C)N(C)C(=O)C3(F)CCN(C(=O)C#CC(C)(C)N(C)C)CC3)C(=O)N3CCC[C@H](N3)C(=O)OCC(C)(C)C2)C1 [Example A550]	1000 to 10000 nM
C=CC(=O)N(C)[C@H]1CN(C(=O)N(C)[C@H](C(=O)N[C@H]2Cc3nc(cs3)-c3ccc4c(c3)c(c(-c3cccnc3[C@H](C)OC)n4CC)CC(C)(C)COC(=O)[C@@H]3CCCN(N3)C2=O)C(C)C)C[C@H]1F (atropisomer, axis not shown) [Example A631]	10 to 100 nM
C=CC(=O)N1CCC2(CCCN(C(=O)N(C)[C@H](C(=O)N[C@H]3Cc4nc(cs4)-c4ccc5c(c4)c(c(-c4cccnc4[C@H](C)OC)n5CC)CC(C)(C)COC(=O)[C@@H]4CCCN(N4)C3=O)C(C)C)C2)CC1 (atropisomer, axis not shown) [Example A696]	10 to 100 nM
C=CC(=O)N(C)C[C@@H]1CCN1C(=O)N(C)[C@H](C(=O)N[C@H]1Cc2nc(cs2)-c2ccc3c(c2)c(c(-c2cccnc2[C@H](C)OC)n3CC)CC(C)(C)COC(=O)[C@@H]2CCCN(N2)C1=O)C(C)C (atropisomer, axis not shown) [Example A390]	100 to 1000 nM
C=CC(=O)N1CC[C@]2(C1)OCN([C@H](C(=O)N[C@H]1Cc3cccc(n3)-c3ccc4c(c3)c(c(-c3cccnc3[C@H](C)OC)n4CC)CC(C)(C)COC(=O)[C@@H]3CCCN(N3)C1=O)C(C)C)C2=O (atropisomer, axis not shown) [Example A652]	1000 to 10000 nM

Please report IC50 for the following compound: C=CC(=O)N1CCO[C@H]2CN(C(=O)N(C)[C@H](C(=O)N[C@H]3Cc4nc(cs4)-c4ccc5c(c4)c(c(-c4cccnc4[C@H](C)OC)n5CC)CC(C)(C)COC(=O)[C@@H]4CCCN(N4)C3=O)C(C)C)C[C@H]21 (atropisomer, axis not shown) [Example A706]
100 to 1000 nM

Please report IC50 for the following compound: C=CC(=O)N1CC2(CCCN2C(=O)N(C)[C@H](C(=O)N[C@H]2Cc3nc(cs3)-c3ccc4c(c3)c(c(-c3cccnc3[C@H](C)OC)n4CC)CC(C)(C)COC(=O)[C@@H]3CCCN(N3)C2=O)C(C)C)C1 (atropisomer, axis not shown) [Example A667]
10 to 100 nM

Please report IC50 for the following compound: CCn1c(-c2cccnc2[C@H](C)OC)c2c3cc(ccc31)-c1csc(n1)C[C@H](NC(=O)[C@H](C(C)C)N(C)C(=O)N1CCC13CN(C(=O)/C=C/CN(C)C)C3)C(=O)N1CCC[C@H](N1)C(=O)OCC(C)(C)C2 (atropisomer, axis not shown) [Example A598]
10 to 100 nM

Taken from patent US11566007B2.
